- STUDY_TARGET: TDP-43 (Homo sapiens, UniProt Q13148 1-414)
- Sequence (Q13148 whole entry): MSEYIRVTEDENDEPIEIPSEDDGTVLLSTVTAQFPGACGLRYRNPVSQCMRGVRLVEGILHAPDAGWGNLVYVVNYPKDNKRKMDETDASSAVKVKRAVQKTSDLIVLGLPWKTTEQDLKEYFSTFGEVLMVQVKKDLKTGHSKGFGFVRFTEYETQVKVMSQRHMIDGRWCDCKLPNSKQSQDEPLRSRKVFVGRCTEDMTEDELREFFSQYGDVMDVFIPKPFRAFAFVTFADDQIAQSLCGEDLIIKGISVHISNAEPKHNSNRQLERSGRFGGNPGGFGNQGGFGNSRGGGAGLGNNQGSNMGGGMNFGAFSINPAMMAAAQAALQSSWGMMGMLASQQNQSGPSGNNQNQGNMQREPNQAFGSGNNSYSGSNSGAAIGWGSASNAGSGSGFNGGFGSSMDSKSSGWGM
- PROTOCOL_SUMMARY: RNA Bind-n-Seq with designed 260-mer pool; 25 mM Tris-HCl, 150 mM KCl, 3 mM MgCl2, BSA (printed 500 mg/mL), 20 units/mL SUPERase IN; pH not stated; 500 nM RNA pool, 1 h, 4 C; TDP-43 5, 50, 500 nM; high values mean tight binding
- TEST_CONDITIONS: protein: recombinant; tags: SBP (GST cleaved off with PreScission; pGEX-GST-SBP)
Whole data set: some 9,900 sequences, median “r (bound/input frequency ratio)” near 0.7, cut for the highest 2% near 6.5. The entries come from a sample that favours the highest values as a whole.
ASSAY_READOUT: binding signal

Known binding signal results, listed for orientation:
binder="ENSMUSG00000058297.293|Spock2|83:88 (ssRNA) RNA: GGGAGUUCUACAGUCCGACGAUCGCUUCGAUAUCCGCAUGCUAAAAGAGAGAGAGAAUGAGAGAGAAUGAGAGAGAGAAUACCCGAGGGCCACCCUGAUGCCCAGGAAGAGUGAGGGCAGCCCCCACACACGUGGAAGAGGCUGGGCAGCUAGCUACUGGGGACCUUGUGCUGAGGCUUCCAGGACAAAGCCCCAGUCUGGCUCUCCCCCAGCCUCUCAGGGGCACUGGCUGGUCACAUCCACUGAGUAUUGAUCGGUUGGACUUUAGGGAAGAGCCUCCUCCUUCCCAUUCCUUUCUGCCACCUCUUGCGGUCGCACUAGUGUGGAAUUCUCGGGUGUCAAGG" result="3.42 R (bound/input frequency ratio)"
binder="ENSMUSG00000058297.287|Spock2|119:124 (ssRNA) RNA: GGGAGUUCUACAGUCCGACGAUCGCUUCGAUAUCCGCAUGCUAAGAGAGAGAGAGAGAGAGAGAGAGAGAGAGAGAGAGAAAGAGAGAGAGAAUGAGAGAGAAUGAGAGAGAGAAUACCCGAGGGCCACCCUGAUGCCCAGGAAGAGUGAGGGCAGCCCCCACACACGUGGAAGAGGCUGGGCAGCUAGCUACUGGGGACCUUGUGCUGAGGCUUCCAGGACAAAGCCCCAGUCUGGCUCUCCCCCAGCCUCUCAGGGGCACUGGCUGGUCACAUCCACUGAGUAUUGAUCGGUUGGACUUUACUCUUGCGGUCGCACUAGUGUGGAAUUCUCGGGUGUCAAGG" result="7.84 R (bound/input frequency ratio)"
binder="ENSMUSG00000058297.288|Spock2|113:118 (ssRNA) RNA: GGGAGUUCUACAGUCCGACGAUCGCUUCGAUAUCCGCAUGCUAAGAGAGAGAGAGAGAGAGAGAGAGAGAGAGAAAGAGAGAGAGAAUGAGAGAGAAUGAGAGAGAGAAUACCCGAGGGCCACCCUGAUGCCCAGGAAGAGUGAGGGCAGCCCCCACACACGUGGAAGAGGCUGGGCAGCUAGCUACUGGGGACCUUGUGCUGAGGCUUCCAGGACAAAGCCCCAGUCUGGCUCUCCCCCAGCCUCUCAGGGGCACUGGCUGGUCACAUCCACUGAGUAUUGAUCGGUUGGACUUUAGGGAAGCUCUUGCGGUCGCACUAGUGUGGAAUUCUCGGGUGUCAAGG" result="7.71 R (bound/input frequency ratio)"

Next binder, please.
[ask] I would be grateful if you could share the reported binding signal for ENSMUSG00000058297.289|Spock2|107:112 (ssRNA) RNA: GGGAGUUCUACAGUCCGACGAUCGCUUCGAUAUCCGCAUGCUAAGAGAGAGAGAGAGAGAGAGAGAGAAAGAGAGAGAGAAUGAGAGAGAAUGAGAGAGAGAAUACCCGAGGGCCACCCUGAUGCCCAGGAAGAGUGAGGGCAGCCCCCACACACGUGGAAGAGGCUGGGCAGCUAGCUACUGGGGACCUUGUGCUGAGGCUUCCAGGACAAAGCCCCAGUCUGGCUCUCCCCCAGCCUCUCAGGGGCACUGGCUGGUCACAUCCACUGAGUAUUGAUCGGUUGGACUUUAGGGAAGAGCCUCCUCUUGCGGUCGCACUAGUGUGGAAUUCUCGGGUGUCAAGG .
[reply] 7.59 R (bound/input frequency ratio)
